test: gradient 5% acetonitrile 3 min, to 50% in 2 min, to 85% in 15 min, held 3 min, 100 µL/min
measurement context: column: Zorbax Extend-C18 2.1 x 50 mm; eluents: water / acetonitrile, 0.1% formic acid
measured metric: RP-LC retention time (s)

compound: CC(C)CNC(=O)c1nc2cccnc2n(C)c1=O
RP-LC retention time [s]: 701

I = Fc1ccc(OCc2nc(C3CCCN3)no2)cc1 (stereo not given)
II = Cc1nc2cccnc2n1CC1CCCN(S(=O)(=O)c2ccc3c(c2)CCCC3)C1 (stereo not given)
III = Cc1nn(-c2ccc(F)cc2)c2nc(N3CCCC(C(=O)NCc4ccc(Cl)cc4)C3)sc12 (stereo not given)
Please rank these compounds by RP-LC retention time in descending order. Please reply with the labels ordered as requested. Many thanks.
III, II, I

a = COCC(=O)N1CCCc2ccc(NC(=O)NCc3cccs3)cc21
b = COc1ccc(-c2nc(-c3ccc4oc(C)nc4c3)no2)c(OC)c1
Looking only at measured RP-LC retention time, which entry is lower, a or b ? Let me know the label of the one you choose.
a
(a: 662 s, b: 976 s)

a = O=C(NCCC1=CCCCC1)C1CCCN(C(=O)c2cc(-c3ccccn3)n[nH]2)C1 (stereo not given)
b = O=C1C2N=NN(Cc3nc(-c4cccc(C(F)(F)F)c4)no3)C2C(=O)N1c1ccc2c(c1)CCC2 (stereo not given)
Looking only at measured RP-LC retention time, which entry is lower, a or b ? Let me know the label of the one you choose.
a

---

test: gradient 5% acetonitrile 3 min, to 50% in 2 min, to 85% in 15 min, held 3 min, 100 µL/min
measurement context: column: Zorbax Extend-C18 2.1 x 50 mm; eluents: water / acetonitrile, 0.1% formic acid
measured metric: RP-LC retention time (s)

molecule: Cc1cc(N2CCN(C(=O)Nc3ccc(F)c(Cl)c3)CC2)nc(N2CCOCC2)n1
measured metric: RP-LC retention time
observed measurement: 665
--
molecule: CC1Cc2ccccc2N1S(=O)(=O)CCCOc1ccc2c(c1)OCO2 (stereo not given)
measured metric: RP-LC retention time
observed measurement: 1020
--
molecule: COc1ccc(NS(=O)(=O)c2cc(-c3[nH]ncc3C(=O)N(C)C)oc2C)c(C)c1
measured metric: RP-LC retention time
observed measurement: 681
--
molecule: O=C(CCC1CCCCC1)NC1CCN(c2ccc(=O)n(CC3CC3)n2)CC1
measured metric: RP-LC retention time
observed measurement: 924
--
molecule: CCOc1ccc(C(C)NC(=O)c2cn3c(n2)CN(CC(C)C)CC3)cc1 (stereo not given)
measured metric: RP-LC retention time
observed measurement: 640
--
molecule: COc1ccc(N2CCN(CCCNC(=O)C3CCCN(c4nccc(C)n4)C3)CC2)cc1 (stereo not given)
measured metric: RP-LC retention time
observed measurement: 603
--
molecule: O=C(Nc1cccnc1N1CCOCC1)C1CCC1
measured metric: RP-LC retention time
observed measurement: 623
--
molecule: COc1ccc(Cc2nnc3sc(-c4cnccn4)nn23)cc1
measured metric: RP-LC retention time
observed measurement: 730
--
molecule: CCN(CC)CCNC(=O)c1nc(-c2oc3c(C)cccc3c2C)no1
measured metric: RP-LC retention time
observed measurement: 677
--
molecule: COC(=O)c1c(NCCC(C)C)c2cccc(Cl)c2[nH]c1=O
measured metric: RP-LC retention time
observed measurement: 847

---

test: gradient 5% acetonitrile 3 min, to 50% in 2 min, to 85% in 15 min, held 3 min, 100 µL/min
measurement context: column: Zorbax Extend-C18 2.1 x 50 mm; eluents: water / acetonitrile, 0.1% formic acid
measured metric: RP-LC retention time (s)

compound: O=C(Nc1nc(C(=O)N2CCc3ccccc32)co1)c1cccs1
observed measurement: 730

compound: O=C(NCC(c1cccnc1)c1c[nH]c2ccccc12)Nc1cccc(Br)c1 (centres undefined)
observed measurement: 714

compound: Cc1cc(N2CCN(S(=O)(=O)c3cccc(C(F)(F)F)c3)CC2)nc(NC2CCCCC2)n1
observed measurement: 890

compound: O=C(Nc1cc(-c2cccs2)no1)C1CCC1
observed measurement: 862

compound: Cc1cc(=O)n(CC(=O)N2CCN(c3ccc(F)cc3)CC2)c(N2CCOCC2)n1
observed measurement: 674

compound: O=C(CSCc1ccccc1)NCCS(=O)(=O)N1CCN(c2ncccn2)CC1
observed measurement: 746

A = O=C(NCc1ccco1)C1CCCN(c2nccnc2Sc2ccccc2)C1 (centres undefined)
B = CCc1ccc(NC(=O)Nc2ccc3nc(N4CCN(C)CC4)cc(C)c3c2)cc1
Looking only at measured RP-LC retention time, which entry is lower, A or B ? Let me know the label of the one you choose.
B

---

test: gradient 5% acetonitrile 3 min, to 50% in 2 min, to 85% in 15 min, held 3 min, 100 µL/min
measurement context: column: Zorbax Extend-C18 2.1 x 50 mm; eluents: water / acetonitrile, 0.1% formic acid
measured metric: RP-LC retention time (s)

Use the examples below as a reference point.
molecule: O=C(NCc1ccccc1)C1CCN(c2cnc3nccnc3c2)CC1
observed measurement: 662
//
molecule: CN(C)CCNc1ccc(-c2nc(-c3ccc(F)cc3)no2)cn1
observed measurement: 668
//
molecule: COc1ccccc1CNS(=O)(=O)c1cc2n(c1)CCN(C(C)C)C2=O
observed measurement: 784
//
molecule: CCc1nc2c(=O)n(CC(=O)N3CCCCCC3)nc(C)c2s1
observed measurement: 706
//
molecule: O=C(Cc1cccc(F)c1)N1CCC(n2nc(-c3ccsc3)ccc2=O)CC1
observed measurement: 812

P = Cc1cccc2c(C(=O)NCC(C)C)c3c(nc12)CCC3
Q = COc1ccc(NS(=O)(=O)c2cccc(-c3nc(-c4ccccc4)no3)c2)cc1
Select one: P or Q . Criterion: greater recorded RP-LC retention time. Let me know the label of the one you choose.
Q

A = CCC(C)NC(=O)N1CCN(c2cc(-c3cc(F)ccc3OC)ncn2)CC1 (stereo unspecified)
B = COc1cccc(Nc2c(-c3cccc(O)c3)nc3cnccn23)c1
Select one: A or B . Criterion: greater recorded RP-LC retention time. Let me know the label of the one you choose.
B
(B: 929 s, A: 636 s)

---

test: gradient 5% acetonitrile 3 min, to 50% in 2 min, to 85% in 15 min, held 3 min, 100 µL/min
measurement context: column: Zorbax Extend-C18 2.1 x 50 mm; eluents: water / acetonitrile, 0.1% formic acid
measured metric: RP-LC retention time (s)

compound: Cc1nc(C2CN(S(=O)(=O)c3cccc(C(F)(F)F)c3)CC23CCOCC3)no1 (centres undefined)
RP-LC retention time (s): 856
--
compound: Cc1c(-c2noc(C(=O)NCCN3CCCC3)n2)oc2c(C)cccc12
RP-LC retention time (s): 668
--
compound: Cc1cc(C)cc(C(=O)NCc2ccc3c(c2)nnn3C)c1
RP-LC retention time (s): 755

A = CCN1CCn2cc(S(=O)(=O)Nc3cccc(Cl)c3)cc2C1=O
B = Cc1ccc(-c2nnc(Cc3nc(-c4cccc(C(F)(F)F)c4)no3)o2)cc1
Looking only at measured RP-LC retention time, which entry is lower, A or B ? Let me know the label of the one you choose.
A

---

test: gradient 5% acetonitrile 3 min, to 50% in 2 min, to 85% in 15 min, held 3 min, 100 µL/min
measurement context: column: Zorbax Extend-C18 2.1 x 50 mm; eluents: water / acetonitrile, 0.1% formic acid
measured metric: RP-LC retention time (s)

Use the examples below as a reference point.
molecule: O=C(Cn1cnc2nc(N3CCC(C(=O)NC4CC4)CC3)sc2c1=O)NC1CCCC1
observed measurement: 609
--
molecule: Cc1cccc(-c2noc(C3CCCN3S(=O)(=O)c3ccc4c(c3)CCC4)n2)c1 (centres undefined)
observed measurement: 1270
--
molecule: Cc1cc(NC(=O)c2cccc(NS(=O)(=O)c3ccc(F)cc3)c2)no1
observed measurement: 736
--
molecule: CCC(C)Sc1nnc(NC(=O)C2CCN(C(=O)c3cccc(F)c3)CC2)s1 (centres undefined)
observed measurement: 877
--
molecule: O=C(Nc1ccc2c(c1)OCCO2)C1CCN(c2cncnc2N2CCCCC2)CC1
observed measurement: 673
--
molecule: COc1cccc(CNC(=O)c2nnc(-c3ccc(S(=O)(=O)N(C)C)cc3)o2)c1
observed measurement: 827
--
molecule: O=C(NCc1cccc(Br)c1)C1CCCN(c2nccnc2Oc2ccccc2)C1 (centres undefined)
observed measurement: 1050

I = O=C(Nc1nnc(SCc2c(F)cccc2Cl)s1)c1cc(C2CC2)on1
II = Cn1c(CNC(=O)C2CCC2)nc2c1CN(S(=O)(=O)c1cccs1)CC2
Looking only at measured RP-LC retention time, which entry is lower, I or II ? Let me know the label of the one you choose.
II

---

test: gradient 5% acetonitrile 3 min, to 50% in 2 min, to 85% in 15 min, held 3 min, 100 µL/min
measurement context: column: Zorbax Extend-C18 2.1 x 50 mm; eluents: water / acetonitrile, 0.1% formic acid
measured metric: RP-LC retention time (s)

Use the examples below as a reference point.
compound: CN(C)C[C@@H]1CN(c2ccncn2)C[C@H]1NC(=O)c1ccc2ccccc2n1
measured metric: RP-LC retention time
units of measure: s
observed measurement: 595
//
compound: CCOC(=O)N1CCC(NS(=O)(=O)C2CC2)CC1
measured metric: RP-LC retention time
units of measure: s
observed measurement: 632
//
compound: Cc1ccc(-c2cc3c4nn(CC(=O)NCc5ccco5)c(=O)n4ccn3n2)cc1C
measured metric: RP-LC retention time
units of measure: s
observed measurement: 874
//
compound: CC(C)c1ccc(NC(=O)C2CCCN(C(=O)C3Sc4ccccc4NC3=O)C2)cc1 (stereo not given)
measured metric: RP-LC retention time
units of measure: s
observed measurement: 913
//
compound: O=C(Cn1nc2c3sc(N4CCCCC4)nc3ncn2c1=O)Nc1cc(F)cc(F)c1
measured metric: RP-LC retention time
units of measure: s
observed measurement: 828
//
compound: O=c1n(Cc2cccc(F)c2)nc2c(S(=O)(=O)N3CCCCC3)cccn12
measured metric: RP-LC retention time
units of measure: s
observed measurement: 872

a = COc1ccc(C2C(=O)N(C3CCCCC3)CC(=O)N2Cc2ccc3c(c2)OCO3)cc1 (stereo not given)
b = CC1CCCN(CCCNC(=O)Cn2c3ccccc3c3cnn(C)c(=O)c32)C1 (stereo not given)
Looking only at measured RP-LC retention time, which entry is lower, a or b ? Let me know the label of the one you choose.
b

P = CCS(=O)(=O)N1CCCC(n2c(C)cnc2-c2ccncc2)C1 (stereo not given)
Q = CCc1noc(-c2cccn2CC#N)n1
Looking only at measured RP-LC retention time, which entry is lower, P or Q ? Let me know the label of the one you choose.
P
(P: 565 s, Q: 824 s)
